Where do these numbers come from? They come from patent US11459324B2.

tested on: Recombinant full length human OGA enzyme (Homo sapiens)
Construct: Recombinant full length human OGA enzyme was purchased from Origene
Sequence (O60502 1-916): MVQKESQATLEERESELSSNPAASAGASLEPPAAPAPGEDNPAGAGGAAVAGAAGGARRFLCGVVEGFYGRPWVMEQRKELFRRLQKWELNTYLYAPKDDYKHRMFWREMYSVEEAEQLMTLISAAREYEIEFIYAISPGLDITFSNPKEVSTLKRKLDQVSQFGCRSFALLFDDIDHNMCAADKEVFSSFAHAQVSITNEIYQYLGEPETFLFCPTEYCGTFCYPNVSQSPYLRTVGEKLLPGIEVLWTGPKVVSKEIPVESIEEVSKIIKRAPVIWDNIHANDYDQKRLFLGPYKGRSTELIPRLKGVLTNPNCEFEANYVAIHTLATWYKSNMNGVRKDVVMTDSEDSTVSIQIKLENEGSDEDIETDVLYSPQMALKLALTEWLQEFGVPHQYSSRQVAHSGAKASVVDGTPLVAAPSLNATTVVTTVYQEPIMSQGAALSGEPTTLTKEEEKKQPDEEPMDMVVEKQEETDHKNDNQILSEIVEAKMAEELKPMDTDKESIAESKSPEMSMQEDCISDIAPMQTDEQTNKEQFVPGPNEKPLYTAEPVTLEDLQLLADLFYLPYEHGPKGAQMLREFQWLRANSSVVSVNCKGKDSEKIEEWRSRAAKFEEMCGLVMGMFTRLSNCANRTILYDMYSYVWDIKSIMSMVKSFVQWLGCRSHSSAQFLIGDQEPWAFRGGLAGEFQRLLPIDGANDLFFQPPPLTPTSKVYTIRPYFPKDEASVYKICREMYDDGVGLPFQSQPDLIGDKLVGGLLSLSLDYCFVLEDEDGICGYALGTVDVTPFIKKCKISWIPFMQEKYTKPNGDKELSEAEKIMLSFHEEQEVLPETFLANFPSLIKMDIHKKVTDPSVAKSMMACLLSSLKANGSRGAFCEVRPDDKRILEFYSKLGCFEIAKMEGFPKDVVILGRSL
experiment summary: OGA Enzyme Inhibition Biochemical Assay
test settings: 1 nM OGA, 100 μM 4-MUGlcNAc (Km), pH 6.4, 90 minutes at room temperature, 10-point dose-response from 20 μM
pIC50: −log10 of the molar value.
endpoint name: pIC50

Completed entries (count: 8):
CC(=O)Nc1ncc(CN2C[C@@H](Cc3ncc(F)cn3)C[C@H]2C(F)(F)F)s1 (single isomer, unassigned) | 6.89
COc1cc(C[C@H]2CCCN(Cc3cnc(NC(C)=O)s3)C2)ncn1 | 8.89
COc1ccc(CC2CCN(Cc3cnc(NC(C)=O)s3)C2)cc1 (stereo not drawn) | 7.34
CC(=O)Nc1ncc(CN2CCCC(Cc3csc(C)n3)C2)s1 (stereo not drawn) | 7.52
CC(=O)Nc1ncc(CN2CCCC(Cc3cc(F)ccn3)C2)s1 (stereo not drawn) | 6.85
CC(=O)Nc1ncc(CN2CC[C@H](Cc3nccc(C)n3)C2)s1 | 7.85
CC(=O)Nc1ncc(CN2CCCC(Cc3cscn3)C2)s1 (stereo not drawn) | 7.51
CC(=O)Nc1ncc(CN2CCCC(Cc3nccn3C)C2)s1 (stereo not drawn) | 7.37

A. CC(=O)Nc1ncc(CN2CCCC(Cn3nc(C)c(C)c3C)C2)s1 (stereo not drawn)
B. CC(=O)Nc1ncc(CN2CCCC(Cn3ccnn3)C2)s1 (stereo not drawn)
C. CC(=O)N(C)c1ncc(CN2CCC[C@H](Cc3ncc(F)cn3)C2)s1
Hello, I need these entries ordered by pIC50, highest reading first. Thanks! Use the labels to give the ranking in the order requested.
C, B, A
(C: 7.72, B: 7.26, A: 6.17)

P. CC(=O)Nc1ncc(CN2CC[C@H](C)[C@@H](Cc3ncc(F)cn3)C2)s1 (single isomer, unassigned) [Example 2-37]
Q. CC(=O)Nc1ncc(CN2C[C@H](Cc3noc(C)n3)C[C@@H]2C)s1
R. CC(=O)Nc1ncc(CN2CCCC(Cc3cncc(C(F)(F)F)c3)C2)s1 (stereo not drawn)
S. COc1cc(C[C@H]2CCN(Cc3sc(NC(C)=O)nc3F)C2)ncn1
T. CC(=O)Nc1ncc(CN2CC[C@H](Cc3ncc(F)cn3)C2)s1 (single isomer, unassigned)
# ascending order, key=pIC50 # answer = labels listed in requested order
R, S, T, Q, P
(R: 7.52, S: 7.85, T: 8.15, Q: 8.42, P: 8.70)

I. CC(=O)Nc1ncc(CN2CCC[C@H](Cc3ncc(C(F)(F)F)cn3)C2)s1
II. COc1cncc(CC2CCCN(Cc3cnc(NC(C)=O)s3)C2)n1 (stereo not drawn)
Between the two listed entries I and II , which has its pIC50 at the higher number? // respond with label for picked entry
II

----------
tested on: Recombinant full length human OGA enzyme (Homo sapiens)
Construct: Recombinant full length human OGA enzyme was purchased from Origene
experiment summary: OGA Enzyme Inhibition Biochemical Assay
test settings: 1 nM OGA, 100 μM 4-MUGlcNAc (Km), pH 6.4, 90 minutes at room temperature, 10-point dose-response from 20 μM
endpoint name: IC50

CC(=O)Nc1nc(F)c(CN2CCC[C@H](Cc3cc(C)nc(C)c3)C2)s1 | < 1 nM
CC(=O)Nc1nc(F)c(CN2CC[C@H](Cc3cc(C)nc(C)c3)C2)s1 | < 1 nM
CC(=O)Nc1ncc(CN2C[C@H](Cc3ncc(F)cn3)C[C@@H]2C(F)(F)F)s1 (single isomer, unassigned) [Example 2-44] | > 20000 nM
CC(=O)Nc1nc(F)c(CN2CCC[C@H](Cc3ncc(F)cn3)C2)s1 | < 1 nM
CC(=O)Nc1ncc(CN2CC(Cc3noc(C)n3)CC[C@@H]2C)s1 (stereo partly drawn) | < 1 nM

Here is another compound to look at.
Look at this compound and give its reported IC50. CC(=O)Nc1nc(F)c(CN2CCC[C@H](Cc3ccnc(C)c3)C2)s1
< 1 nM

----------
tested on: Recombinant full length human OGA enzyme (Homo sapiens)
Construct: Recombinant full length human OGA enzyme was purchased from Origene; purchased Origene
experiment summary: OGA Enzyme Inhibition Biochemical Assay
test settings: 1 nM OGA, 100 μM 4-MUGlcNAc (Km), pH 6.4, 90 minutes at room temperature, 10-point dose-response from 20 μM
endpoint name: IC50

Examples with answers:
COc1nc(C[C@H]2CCN(Cc3cnc(NC(C)=O)s3)C2)nc(C)c1F | < 1 nM
CC(=O)Nc1nc(F)c(CN2C[C@@H](Cc3noc(C)n3)C[C@@H]2C)s1 (single isomer, unassigned) [Example 4-12 Peak 1] | < 1 nM

Now examine the next entry.
Which IC50 reading was recorded for the compound CC(=O)Nc1ncc(CN2CCCC(Cc3ccc(F)cn3)C2)s1 (stereo not drawn) ?
23 nM
